Attribution: PubChem BioAssay (NCI)

# System: HCT-116 colon
# test.description: NCI-60 one-dose screen, 48 h (100 = growth as untreated, 0 = no growth, -100 = all killed)
# condition.notes: 10 µM unless noted
Compounds without any hit were thinned out: in the full panel of roughly 83,000, 20% have a hit.
Reported growth values are given for each entry in this list.
property.name: growth (%)

compound=C#Cc1cccc(Nc2ncnc3ccc(-c4cncc(NS(C)(=O)=O)c4)cc23)c1 units=% numeric_readout=11
compound=Cn1c(=O)c2[nH]c(N/N=C/c3ccccc3Br)nc2n(C)c1=O units=% numeric_readout=103
compound=N#CCSc1nnc2n(Cc3ccccc3)c(=O)c3c4c(sc3n12)CCCC4 units=% numeric_readout=92.7
compound=CCN(C(=O)N1CCN(c2cc3c(cc2F)c(=O)c(C(=O)O)cn3C2CC2)CC1)c1nc(-c2ccc(Cl)cc2)cs1 units=% numeric_readout=9.89
compound=Cc1nc(N2CCOCC2)sc1S(N)(=O)=O units=% numeric_readout=103
compound="Nc1ncnc2c1N=C(c1ccc3c(c1)OCO3)CC(c1ccc([N+](=O)[O-])cc1)N2 (configuration not stated)" units=% numeric_readout=66.6
compound="Nc1ncnc2c1N=C(c1ccc(Cl)cc1)CC(c1ccc3c(c1)OCO3)N2 (configuration not stated)" units=% numeric_readout=83.7
compound="CCCC(=O)NC(c1ccc2c(c1)OCO2)c1ccc2cccnc2c1O (configuration not stated)" units=% numeric_readout=11.8
compound=Cc1nc2sc(C(=O)Nc3cccc(Cl)c3C)c(N)c2cc1C(=O)c1ccccc1 units=% numeric_readout=13.1
compound=COc1ccc(C(=O)Nc2ncc(Cc3ccc(F)cc3)s2)cc1 units=% numeric_readout=13.1
compound="CC(=O)N1N=C(c2ccc(Nc3nc(Nc4ccc(Cl)cc4)nc(Nc4ccc(Cl)cc4)n3)cc2)CC1c1ccco1 (configuration not stated)" units=% numeric_readout=91.3
compound=N=C(N)c1ccc(-c2ccc(-c3ccc(Cl)cc3)s2)nc1 units=% numeric_readout=-82.3
compound=CCOC(=O)C1=NN(c2ccccc2)C(=O)/C1=C\N1C(=O)CC(=O)NC1=S units=% numeric_readout=101
compound=COc1ccc2nc3ccc(OC)cc3c(SCCCN)c2c1 units=% numeric_readout=-49.8
compound=CC[C@]12C=CCN3CC[C@@]4(c5cc(NC(=O)CCC(=O)OCc6cn(Cc7ccc(F)cc7)nn6)c(OC)cc5N(C)[C@H]4[C@@](O)(C(=O)OC)[C@@H]1OC(C)=O)[C@@H]32 units=% numeric_readout=96.3
compound=CC(=O)Nc1nc2ccc(NS(=O)(=O)c3cccc4c(N(C)C)cccc34)cc2[nH]1 units=% numeric_readout=62.2
compound=CC1(C)CC[C@]2(c3nnc(-c4ccncc4)o3)CC[C@H]3C(=CC[C@H]4[C@@]3(C)CC[C@H]3C(C)(C)C(=O)CC[C@]43C)[C@@H]2C1 units=% numeric_readout=29
compound=COc1ccc(-c2nc3c(c(-c4ccccc4)nn3-c3ccccc3)c(-c3ccc(N4CCN(C)CC4)cc3)c2C#N)cc1 units=% numeric_readout=81.4
compound=CCN1CCN(Cc2cn(CC(=O)Nc3ccc4c(ccn4Cc4ccccc4)c3)nn2)CC1 units=% numeric_readout=99.2
compound=O=C(O)c1[nH]c(=O)[nH]c(=O)c1[N+](=O)[O-] units=% numeric_readout=100
compound=O=C(NCc1ccccc1)Nc1ccccc1CNc1nc(Nc2ccc(OCCN3CCCC3)cc2)ncc1Cl units=% numeric_readout=95.5
compound=COC(=O)c1c2c(c[n+]([O-])c1C)C(=O)C(NCc1ccccc1)=CC2=O units=% numeric_readout=1.8
compound=O=C1NCCC12CCN(c1c(Cl)cncc1-c1ccc(O)cc1)CC2 units=% numeric_readout=97.3
compound=CC1(C)CCC(S(=O)(=O)c2ccc3c(c2)/C(=N\O)c2cc(S(=O)(=O)N4CCC(O)(c5cccc(C(F)(F)F)c5)CC4)ccc2-3)CC1 units=% numeric_readout=-87.7
compound=COc1cccc([C@H]2c3[nH]c4ccccc4c3C[C@H]3C(=O)N(CCCCCCC(=O)NO)CC(=O)N23)c1 units=% numeric_readout=35.3
compound=CCOC(=O)c1cnc2ccccc2c1Cl units=% numeric_readout=95.7
compound="O=C(CI)NC1Oc2ccccc2-c2oc(=O)c(-c3ccccc3)cc21 (configuration not stated)" units=% numeric_readout=-37.5
compound=O=C(NNc1nccc(Nc2ccc(S(=O)(=O)Nc3ccncc3)cc2)n1)c1ccccc1 units=% numeric_readout=99.2
compound=Cc1ccccc1/C=C1\CN(C(=O)OC(C)(C)C)C/C(=C\c2ccccc2C)C1=O units=% numeric_readout=-53.9
compound=CCOC(=O)C#Cc1c(C(=O)OCC)nnn1[C@@H]1O[C@H](CO)[C@H]2OC3(CCCCC3)O[C@H]21 units=% numeric_readout=66.5
compound="Cc1ccc(C2=Nc3c(N)ncnc3NC(c3ccc4c(c3)OCO4)C2)cc1 (configuration not stated)" units=% numeric_readout=47
compound=Oc1c(Cl)cc(Cl)c2ccc(Cn3cc(-c4ccc(C(F)(F)F)cc4)nn3)nc12 units=% numeric_readout=8.81
compound=CCN(c1ccc(Cl)cc1)c1nc(-c2ccc([N+](=O)[O-])cc2)cs1 units=% numeric_readout=97.9
compound="CCn1cc(C(=O)N/N=C/c2cccs2)c(=O)c2cc(F)c(N3CCNC(C)C3)c(F)c21 (configuration not stated)" units=% numeric_readout=94.5
compound=CCOC(=O)c1cc(-c2ccc([N+](=O)[O-])cc2)n(-c2ccc(C(=O)O)c(O)c2)c1C units=% numeric_readout=49.4
compound=c1ccc(C2=NN[C@H](c3cn(-c4ccccc4)nc3-c3ccccc3)C2)cc1 units=% numeric_readout=22.8
compound="N#CC1=C(c2ccc(Cl)cc2)Nc2c(c(-c3ccc(Cl)cc3)nn2-c2ccccc2)C12C(=O)Nc1ccc(Cl)cc12 (configuration not stated)" units=% numeric_readout=26.1
